TEST_SYSTEM: T1, human GIP receptor (human, UniProt P48546 22-466)
T1 sequence (looked up): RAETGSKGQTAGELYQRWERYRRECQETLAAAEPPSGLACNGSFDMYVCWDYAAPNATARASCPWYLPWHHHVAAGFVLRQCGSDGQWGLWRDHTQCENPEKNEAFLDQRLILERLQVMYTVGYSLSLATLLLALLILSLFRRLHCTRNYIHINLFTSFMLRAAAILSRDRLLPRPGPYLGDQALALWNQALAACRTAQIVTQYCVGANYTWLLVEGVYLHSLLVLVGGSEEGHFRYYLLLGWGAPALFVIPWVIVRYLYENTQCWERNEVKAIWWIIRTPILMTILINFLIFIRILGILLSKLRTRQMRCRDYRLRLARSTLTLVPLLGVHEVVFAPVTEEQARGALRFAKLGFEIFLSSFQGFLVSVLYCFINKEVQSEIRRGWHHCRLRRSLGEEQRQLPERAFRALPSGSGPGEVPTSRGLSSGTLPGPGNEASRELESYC
PROCEDURE_DETAILS: cell-based or functional assay
Positions of bridges follow the written chain, without caps; N, C: chain ends. Non-standard residues stand in square brackets, D forms with d. No end group written: not given here. *: point of attachment. Acetyl(2-(4-imidazolyl)) = O=C(Cc1c[nH]cn1)*; Aib = CC(C)(N)C(=O)O
ASSAY_READOUT: In vitro activity (%) compared with native peptide: vs GIP
The figure you give is taken to be in %; do not add the unit.

See these solved cases before continuing.
Y[Aib]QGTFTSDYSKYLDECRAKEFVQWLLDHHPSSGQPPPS (bridge 16-20; not fully specified) [triple agonist of SEQ ID NO: 21] :: 22.7
H[Aib]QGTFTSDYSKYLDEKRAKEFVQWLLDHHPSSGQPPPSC (bridge 16-20; not fully specified) [triple agonist of SEQ ID NO: 50] :: 2.7
H[Aib]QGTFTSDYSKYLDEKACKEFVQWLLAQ (bridge 16-20; not fully specified) [triple agonist of SEQ ID NO: 31] :: 2.4
Y[Aib]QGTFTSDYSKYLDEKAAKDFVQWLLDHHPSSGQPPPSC (bridge 16-20; not fully specified) [triple agonist of SEQ ID NO: 77] :: 35.5
{Acetyl(2-(4-imidazolyl))}-[Aib]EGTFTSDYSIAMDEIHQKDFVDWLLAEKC (bridge 15-19; not fully specified) [triple agonist of SEQ ID NO: 91] :: 0.3
{Acetyl(2-(4-imidazolyl))}-[Aib]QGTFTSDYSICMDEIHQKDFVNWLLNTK (bridge 15-19; not fully specified) [triple agonist of SEQ ID NO: 49] :: 3.3

Please turn your attention to the following entry.
Noted for H[Aib]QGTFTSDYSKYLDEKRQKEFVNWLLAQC (bridge 16-20) [triple agonist of SEQ ID NO: 56] : its In vitro activity (%) compared with native peptide: vs GIP reads 0.8
